Molecular target: T1, recombinant human DKK1 (human, UniProt O94907 32-266)
T1 construct: also called Dickkopf-1; rhDKK1
T1 sequence: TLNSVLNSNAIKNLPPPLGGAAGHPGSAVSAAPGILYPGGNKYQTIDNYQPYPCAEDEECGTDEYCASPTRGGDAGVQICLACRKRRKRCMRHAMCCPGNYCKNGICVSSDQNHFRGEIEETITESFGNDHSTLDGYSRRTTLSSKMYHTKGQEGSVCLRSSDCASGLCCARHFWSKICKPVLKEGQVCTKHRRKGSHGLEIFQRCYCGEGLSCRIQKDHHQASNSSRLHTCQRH
Test: solution equilibrium titration (SET), ECL (BioVeris), Fab
recordedEndpoint: pKd
When answering, recall that pKd equals minus log10 of the concentration in mol/L, and write that number alone.

Worked set:
{"columns": ["binder", "readoutValue"],
 "data": [
  ["MOR04946 (Fab, V domains shown) VH: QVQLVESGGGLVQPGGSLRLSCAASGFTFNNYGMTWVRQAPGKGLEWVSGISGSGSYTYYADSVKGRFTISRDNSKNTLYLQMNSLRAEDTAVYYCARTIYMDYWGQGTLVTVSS VL: DIVLTQSPATLSLSPGERATLSCRASQNLFSPYLAWYQQKPGQAPRLLIYGASNRATGVPARFSGSGSGTDFTLTISSLEPEDFAVYYCQQYLTLPLTFGQGTKVEIKR", 10.60],
  ["MOR04913 (Fab, V domains shown) VH: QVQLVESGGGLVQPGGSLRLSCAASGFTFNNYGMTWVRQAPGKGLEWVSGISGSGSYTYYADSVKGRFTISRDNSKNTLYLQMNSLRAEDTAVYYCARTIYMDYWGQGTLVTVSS VL: DIVLTQSPATLSLSPGERATLSCRASQNLFSPYLAWYQQKPGQAPRLLIYGASNRATGVPARFSGSGSGTDFTLTISSLEPEDFAVYYCQQYMTLPLTFGQGTKVEINR", 10.42]
]}

Entry under test: MOR04952 (Fab, V domains shown) VH: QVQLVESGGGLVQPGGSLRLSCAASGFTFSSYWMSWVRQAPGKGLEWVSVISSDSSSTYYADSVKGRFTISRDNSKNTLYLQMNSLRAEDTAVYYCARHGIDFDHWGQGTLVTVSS VL: DIALTQPASVSGSPGQSITISCTGTSSDLGGYNYVSWYQQHPGKAPKLMIYDVNNRPSGVSNRFSGSKSGNTASLTISGLQAEDEADYYCQSYDSPTDSVVFGGGTKLTVLG . Its pKd was 10.00
